# microsomal CLint per record follows
# assay_remarks: Metabolic stability in human liver microsomes assessed as intrinsic clearance
# Assay type: ADME, Microsome
# condition_set: read-out: CLH
Give your result in µL/min/mg as a bare value.

molecule	microsomal CLint / µL/min/mg
C[C@H]1CN(CC[C@H]2CC[C@H](NC(=O)N(C)C)CC2)CCc2ccc(Cl)cc21	42.4

**Query** Any idea what its microsomal CLint is? The molecule is COc1ccc2c(c1)[C@]13CCCC[C@@H]1[C@H](C2)N(C)CC3 [DEXTROMETHORPHAN]
**Result** 59.7

----------
# Ki per record follows
# system: D(2) dopamine receptor (Homo sapiens)
# Sequence (P14416 whole entry): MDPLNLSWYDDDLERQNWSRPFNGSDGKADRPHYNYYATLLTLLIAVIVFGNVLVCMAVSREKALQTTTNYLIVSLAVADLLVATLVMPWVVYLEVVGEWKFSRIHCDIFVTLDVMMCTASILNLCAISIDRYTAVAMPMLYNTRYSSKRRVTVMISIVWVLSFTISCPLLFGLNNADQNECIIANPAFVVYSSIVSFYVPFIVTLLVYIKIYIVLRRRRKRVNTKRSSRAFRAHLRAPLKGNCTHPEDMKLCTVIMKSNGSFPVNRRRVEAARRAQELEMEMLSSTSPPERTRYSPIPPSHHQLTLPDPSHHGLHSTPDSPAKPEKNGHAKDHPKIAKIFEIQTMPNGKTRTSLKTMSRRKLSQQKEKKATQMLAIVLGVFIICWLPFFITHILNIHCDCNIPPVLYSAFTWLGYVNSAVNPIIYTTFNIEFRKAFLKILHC
# assay_remarks: Displacement of [3H]-spiperone from recombinant human D2L receptor expressed in CHO cells
Give your result in nM as a bare value.

C[C@H]1CN(CC[C@H]2CC[C@H](N3C(=O)[C@H]4CCCC[C@H]4C3=O)CC2)CCc2ccc(Cl)cc21 14.1
CCN(CC)C(=O)N[C@H]1CC[C@H](CCN2CCc3ccc(Cl)cc3[C@@H](C)C2)CC1 91.1
C[C@H]1CN(CC[C@H]2CC[C@H](NC(=O)Nc3ccccc3)CC2)CCc2ccc(Cl)cc21 2.8
C[C@H]1CN(CC[C@H]2CC[C@H](NC(=O)[C@@H]3CCCO3)CC2)CCc2ccc(Cl)cc21 20.6

**Query** Any idea what its Ki is? The molecule is C[C@H]1CN(CC[C@H]2CC[C@H](NC(=O)c3ccco3)CC2)CCc2ccc(Cl)cc21
**Result** 19.3

**Query** Any idea what its Ki is? The molecule is C[C@H]1CN(CC[C@H]2CC[C@H](NC(=O)N(C)C)CC2)CCc2ccc(Cl)cc21
**Result** 5.9

**Query** Any idea what its Ki is? The molecule is C[C@H]1CN(CC[C@H]2CC[C@H](NC(=O)N3CCOCC3)CC2)CCc2ccc(Cl)cc21
**Result** 2.9

**Query** Any idea what its Ki is? The molecule is C[C@H]1CN(CC[C@H]2CC[C@H](NC(=O)C3CC3)CC2)CCc2ccc(Cl)cc21
**Result** 9.8

----------
# system: Adrenergic receptor alpha-1 (Rattus norvegicus) (UniProt P15823+P23944+P43140)
# assay_remarks: Displacement of [3H]-prazosin from adrenergic alpha1 in rat cerebral cortex at 10 uM relative to control
# Assay type: tissue-based
# inhibition per record follows

Guide cases for inhibition, answers given:
C[C@H]1CN(CC[C@H]2CC[C@H](NC(=O)Nc3ccccc3)CC2)CCc2ccc(Cl)cc21 53.8%
C[C@H]1CN(CC[C@H]2CC[C@H](NC(=O)N3CCOCC3)CC2)CCc2ccc(Cl)cc21 48%
C[C@H]1CN(CC[C@H]2CC[C@H](N3C(=O)[C@H]4CCCC[C@H]4C3=O)CC2)CCc2ccc(Cl)cc21 63.2%

Below: the item to evaluate.
**Query** Report inhibition for C[C@H]1CN(CC[C@H]2CC[C@H](N3C(=O)CC4(CCCC4)CC3=O)CC2)CCc2ccc(Cl)cc21 tested on Adrenergic receptor alpha-1 (Rattus norvegicus) (UniProt P15823+P23944+P43140).
**Result** 60.9%

----------
# system: Histamine H1 receptor (Homo sapiens)
# assay_remarks: Displacement of [3H]-pyrilamine from human H1 histamine receptor expressed in human HEK293 cells at 10 uM relative to control
# Format: cell-based
# inhibition per record follows
Give your result in % as a bare value.

Guide cases for inhibition, answers given:
compound	units_label	inhibition
C[C@H]1CN(CC[C@H]2CC[C@H](NC(=O)N3CCCC3)CC2)CCc2ccc(Cl)cc21	%	56.8
CCCC(=O)N[C@H]1CC[C@H](CCN2CCc3ccc(Cl)cc3[C@@H](C)C2)CC1	%	27
C[C@H]1CN(CC[C@H]2CC[C@H](NC(=O)N(C)c3ccccc3)CC2)CCc2ccc(Cl)cc21	%	75

Below: the item to evaluate.
**Query** Any idea what its inhibition is? The compound is CCN(CC)C(=O)N[C@H]1CC[C@H](CCN2CCc3ccc(Cl)cc3[C@@H](C)C2)CC1
**Result** 69.2
